Origin of the recorded values: patent US20100310535A1

# System: human cord blood-derived CD34^+ cells
# experiment: Expansion of CD34^+ cells from human cord blood-derived CD34^+ cells (7-day liquid culture with SCF, flow cytometry)
# Assay type: cell-based
# condition_details: 168 h, 1 μg/mL compound, based on the number of CD34^+ cells in the absence of compound, 100 ng/mL SCF, 7 days, read-out: Expansion efficiency
Give measured fold induction at 1 µg/mL for each item. Keep answers brief.

COC(=O)C1CCN(C(=S)N/N=C(\C)c2csc(-c3ccc(OC)cc3)c2O)CC1 [compound 5] :: 1.5 to 2

Hello, I would appreciate it if you could give fold induction at 1 µg/mL for each entry below.
1. C/C(=N\NC(=S)N1CCC(C(=O)O)CC1)c1csc(-c2ccc(Br)cc2)c1O [compound 8]
2. COc1ccc(-c2scc(/C(C)=N/NC(=S)N3CCC(C(=O)O)CC3)c2O)cc1 [compound 6]

(A)
1: ≥ 3; 2: ≥ 3

* * *

Give measured fold induction at 1 µg/mL for each item. Keep answers brief.
# Test system: human cord blood-derived CD34^+ cells
# experiment: Expansion of CD34^+ cells from human cord blood-derived CD34^+ cells (7-day liquid culture with SCF, flow cytometry)
# Format: cell-based
# condition_details: 168 h, 1 μg/mL compound, based on the number of CD34^+ cells in the absence of compound, 100 ng/mL SCF, 7 days, read-out: Expansion efficiency

Examples with their reported fold induction at 1 µg/mL follow.
C/C(=N\NC(=S)N1CCC(C(=O)O)CC1)c1csc(-c2ccc(Cl)cc2)c1O [compound 13] :: ≥ 3
C/C(=N\NC(=S)N1CCC(C(=O)O)CC1)c1nn(C)c(-c2ccc(C(F)(F)F)cc2)c1O [compound 3] :: 1.5 to 2
CCCNC(=O)C1CCN(C(=S)N/N=C(\C)c2nn(C)c(-c3ccc(C(F)(F)F)cc3)c2O)CC1 [compound 9] :: 2 to 3
C/C(=N\NC(=S)N1CCC(C(=O)O)CC1)c1csc(-c2cccc(Cl)c2)c1O [compound 12] :: 2 to 3
C/C(=N\NC(=S)N1CCC(C(=O)O)CC1)c1csc(-c2ccc(C(F)(F)F)cc2)c1O [compound 2] :: 2 to 3

Hello, I would appreciate it if you could give fold induction at 1 µg/mL for each entry below.
1. C/C(=N\NC(=S)N1CCC(C(=O)O)CC1)c1csc(-c2ccc(OC(F)(F)F)cc2)c1O [compound 11]
2. C/C(=N\NC(=S)N1CCC(C(=O)O)CC1)c1csc(-c2ccc(C(C)(C)C)cc2)c1O [compound 7]
3. C/C(=N\NC(=S)N1CCC(C(=O)O)CC1)c1csc(-c2ccc(C)c(C)c2)c1O [compound 10]
4. COC(=O)C1CCN(C(=S)N/N=C(\C)c2nn(C)c(-c3ccc(Cl)c(Cl)c3)c2O)CC1 [compound 4]
5. C/C(=N\NC(=S)N1CCC(C(=O)O)CC1)c1csc(-c2ccc(Cl)c(Cl)c2)c1O [compound 1]

(A)
1: ≥ 3; 2: ≥ 3; 3: ≥ 3; 4: 1.5 to 2; 5: 2 to 3
